src = ChEMBL document CHEMBL3734652

assay-protocol: Metabolic stability in rat liver microsomes assessed as residual compound at 0.1 uM after 30 mins by LC-MS/MS method in presence or absence of NADPH
Assay type: ADME
condition-parameters: read-out: Stability
# if measured remaining at 0.5 h, 0.1 µM < 70%: Met  # else: Not met

| compound | label-class |
| --- | --- |
| CCOC(=O)c1nc(C)c2c(c1N)C(=O)N(Cc1ccccc1)C2=O | Met |
| Cc1nc(C(=O)OC2CC2)c(N)c2c1C(=O)N(Cc1ccccc1)C2=O | Met |
| CCCOC(=O)c1nc(C)c2c(c1N)C(=O)N(Cc1ccccc1)C2=O | Met |
| Cc1nc(C#N)c(N)c2c1C(=O)N(Cc1ccccc1)C2=O | Not met |
| Cc1nc(C(=O)NO)c(N)c2c1C(=O)N(Cc1ccccc1)C2=O | Met |
| Cc1nc(-c2nc(C(F)(F)F)no2)c(N)c2c1C(=O)N(Cc1ccccc1)C2=O | Not met |
| Cc1nc(C(=O)NC#N)c(N)c2c1C(=O)N(Cc1ccccc1)C2=O | Not met |
| CCOC(=O)c1nc(C)c2c(c1N)C(=O)N(Cc1ccccc1)C2O (stereo not drawn) | Not met |
| Cc1nnc(-c2nc(C)c3c(c2N)C(=O)N(Cc2ccccc2)C3=O)o1 | Met |
| Cc1noc(-c2nc(C)c3c(c2N)C(=O)N(Cc2ccccc2)C3=O)n1 | Not met |
| Cc1nc(C(=O)N(C)C)c(N)c2c1C(=O)N(Cc1ccccc1)C2=O | Met |

----------
assay-protocol: Volume of distribution in anesthetized C57/BL6 mouse at 5 mg/kg, iv by LC-MS method
Type: ADME, organism-based
condition-parameters: in vivo

| structure-smiles-string | Vd |
| --- | --- |
| Cc1noc(-c2nc(C)c3c(c2N)C(=O)N(Cc2cccc(Cl)c2)C3=O)n1 | 104 L/kg |

----------
assay-protocol: Cmax in C57/BL6 mouse at 20 mg/kg, po by LC-MS method
Assay type: ADME, organism-based
Design: dose 20 mg/kg, route oral
condition-parameters: in vivo
test-readout: Cmax

| structure-smiles-string | measured-value |
| --- | --- |
| Cc1noc(-c2nc(C)c3c(c2N)C(=O)N(Cc2cccc(Cl)c2)C3=O)n1 | 33 nM |

----------
assay-protocol: Plasma protein binding in human at 5 uM preincubated for 1 hr by LC-MS/MS method
Type: ADME, cell-free
condition-parameters: read-out: PPB (converted)
test-readout: fraction unbound at 1 h, 5 µM

| structure-smiles-string | measured-value |
| --- | --- |
| Cc1noc(-c2nc(C)c3c(c2N)C(=O)N(Cc2cccc(Cl)c2)C3=O)n1 | 0.033 |

----------
System: Liver microsome
assay-protocol: Intrinsic clearance in rat liver microsomes assessed per mg of protein at 0.1 uM by LC-MS/MS method in presence or absence of NADPH
Type: ADME

| structure-smiles-string | subject-of-test | endpoint-unit | qual | CLint |
| --- | --- | --- | --- | --- |
| Cc1noc(-c2nc(C)c3c(c2N)C(=O)N(Cc2cccc(Cl)c2)C3=O)n1 | Liver microsome | µL/min/mg | < | 11.6 |
| Cc1noc(-c2nc(C)c3c(c2N)C(=O)N(Cc2cccc(OC(F)(F)F)c2)C3=O)n1 | Liver microsome | µL/min/mg | = | 32.4 |

----------
Form field: solubility kinetic at 2 h (one value per entry).
assay-protocol: Kinetic solubility in FaSSIF at pH 6.5 after 2 hours at 25 degC by shake flask method
Format: physicochemical
condition-parameters: read-out: Kinetic_solubility

| compound | solubility kinetic at 2 h |
| --- | --- |
| CCOC(=O)c1nc(C)c2c(c1N)C(=O)N(Cc1ccccc1)C2O (stereo not given) | 41.5 µM |
| Cc1noc(-c2nc(C)c3c(c2N)C(=O)N(Cc2ccccc2C(F)(F)F)C3=O)n1 | < 5 µM |
| Cc1noc(-c2nc(C)c3c(c2N)C(=O)N(Cc2ccc(OC(F)(F)F)cc2)C3=O)n1 | < 5 µM |
| Cc1noc(-c2nc(C)c3c(c2N)C(=O)N(Cc2ccc(SC(F)(F)F)cc2)C3=O)n1 | < 5 µM |
| COc1ccc(CN2C(=O)c3c(C)nc(-c4nc(C)no4)c(N)c3C2=O)cc1 | < 5 µM |
| Cc1nc(C(=O)NC#N)c(N)c2c1C(=O)N(Cc1ccccc1)C2=O | 185 µM |
| Cc1noc(-c2nc(C)c3c(c2N)C(=O)N(Cc2ccc(S(C)(=O)=O)cc2)C3=O)n1 | < 5 µM |
| Cc1noc(-c2nc(C)c3c(c2N)C(=O)N(CC2CCNCC2)C3=O)n1 | 160 µM |
| Cc1noc(-c2nc(C)c3c(c2N)C(=O)N(Cc2ccc(N(C)C)cc2)C3=O)n1 | 7.4 µM |
| Cc1noc(-c2nc(C)c3c(c2N)C(=O)N(Cc2ccc(Br)cc2)C3=O)n1 | < 5 µM |
| COc1ccccc1CN1C(=O)c2c(C)nc(-c3nc(C)no3)c(N)c2C1=O | < 5 µM |
| Cc1noc(-c2nc(C)c3c(c2N)C(=O)N(Cc2ccc(CO)cc2)C3=O)n1 | < 5 µM |
| Cc1nnc(-c2nc(C)c3c(c2N)C(=O)N(Cc2ccccc2)C3=O)o1 | < 5 µM |
| Cc1noc(-c2nc(C)c3c(c2N)C(=O)N(Cc2ccccc2Cl)C3=O)n1 | < 5 µM |
| Cc1nc(C(=O)N(C)C)c(N)c2c1C(=O)N(Cc1ccccc1)C2=O | 172 µM |
| CNC(=O)c1nc(C)c2c(c1N)C(=O)N(Cc1ccccc1)C2=O | 41 µM |
| Cc1noc(-c2nc(C)c3c(c2N)C(=O)N(Cc2ccccc2F)C3=O)n1 | < 5 µM |
| Cc1nc(-c2nc(C(F)(F)F)no2)c(N)c2c1C(=O)N(Cc1ccccc1)C2=O | < 5 µM |
| Cc1noc(-c2nc(C)c3c(c2N)C(=O)N(CC2CCOCC2)C3=O)n1 | 5.7 µM |
| CCCOC(=O)c1nc(C)c2c(c1N)C(=O)N(Cc1ccccc1)C2=O | < 5 µM |

----------
assay-protocol: Apparent half-life in anesthetized C57/BL6 mouse at 5 mg/kg, iv by LC-MS method
Assay type: ADME, organism-based
condition-parameters: in vivo, read-out: t1/2(app) (converted)

| structure-smiles-string | half-life (h) |
| --- | --- |
| Cc1noc(-c2nc(C)c3c(c2N)C(=O)N(Cc2cccc(Cl)c2)C3=O)n1 | 7.01 |

----------
assay-protocol: Cmax in anesthetized C57/BL6 mouse at 5 mg/kg, iv co-administered with amino-benzotriazole by LC-MS method
Format: ADME, organism-based
Parameters: dose 5 mg/kg, route intravenous
condition-parameters: in vivo
test-readout: Cmax (nM)

| structure-smiles-string | measured-value |
| --- | --- |
| Cc1noc(-c2nc(C)c3c(c2N)C(=O)N(Cc2cccc(Cl)c2)C3=O)n1 | 1530 |

----------
assay-protocol: Octanol-phosphate buffer partition coefficient, log D of the compound at 100 uM at pH 7.4 after 3 hrs by shake flask method
Type: physicochemical

| structure-smiles-string | logD at 3 h, 100 µM |
| --- | --- |
| Cc1noc(-c2nc(C)c3c(c2N)C(=O)N(Cc2cccc(Cl)c2)C3=O)n1 | 3.34 |
| Cc1noc(-c2nc(C)c3c(c2N)C(=O)N(Cc2cccc(OC(F)(F)F)c2)C3=O)n1 | 3.64 |

----------
assay-protocol: Metabolic stability in human liver microsomes assessed as residual compound at 0.1 uM after 30 mins by LC-MS/MS method in presence or absence of NADPH
Type: ADME
condition-parameters: read-out: Stability
Form field: remaining at 0.5 h, 0.1 µM (one value per entry).

| molecule | remaining at 0.5 h, 0.1 µM [%] |
| --- | --- |
| Cc1nc(C(=O)NO)c(N)c2c1C(=O)N(Cc1ccccc1)C2=O | 80 |
| CCCOC(=O)c1nc(C)c2c(c1N)C(=O)N(Cc1ccccc1)C2=O | 3.4 |
| Cc1noc(-c2nc(C)c3c(c2N)C(=O)N(Cc2ccccc2)C3=O)n1 | 57 |
| Cc1nc(C(=O)OC2CC2)c(N)c2c1C(=O)N(Cc1ccccc1)C2=O | 61 |
| CCOC(=O)c1nc(C)c2c(c1N)C(=O)N(Cc1ccccc1)C2=O | 14 |
| Cc1nc(-c2nc(C(F)(F)F)no2)c(N)c2c1C(=O)N(Cc1ccccc1)C2=O | 100 |
| CCOC(=O)c1nc(C)c2c(c1N)C(=O)N(Cc1ccccc1)C2O (stereo not drawn) | 99 |
| Cc1nc(C(=O)NC#N)c(N)c2c1C(=O)N(Cc1ccccc1)C2=O | 99 |
| Cc1nc(C(=O)N(C)C)c(N)c2c1C(=O)N(Cc1ccccc1)C2=O | 72 |
| Cc1nnc(-c2nc(C)c3c(c2N)C(=O)N(Cc2ccccc2)C3=O)o1 | 63 |
| Cc1nc(C#N)c(N)c2c1C(=O)N(Cc1ccccc1)C2=O | 98 |
| COC(=O)c1nc(C)c2c(c1N)C(O)N(Cc1ccccc1)C2=O (stereo not drawn) | 55 |
| Cc1nc(C(=O)O)c(N)c2c1C(=O)N(Cc1ccccc1)C2=O | 64 |
